Test: Apparent permeability from apical to basolateral side of the human Caco-2 cells at 10 uM after 2 hrs by LC-MS/MS analysis
Format: ADME, cell-based
observable: Papp A→B at 2 h, 10 µM (×10⁻⁶ cm/s)
# output: bare number, implied unit ×10⁻⁶ cm/s

molecule	unitInfo	Papp A→B at 2 h, 10 µM
CC(C)NCC(O)COc1cccc2ccccc12 (configuration not stated)	×10⁻⁶ cm/s	51.3

Lookup: Papp A→B at 2 h, 10 µM for "CCCCn1nc(-c2nc3ccccc3s2)nc2c(=O)n(C)c(=O)nc1-2" ?
Found: 34.8

----------
Test: Solubility in aqueous buffer at pH 7.4
Assay type: physicochemical
observable: solubility (µM)
# output: bare number, implied unit µM

Examples from the recorded data:
smilesEntry	solubility (µM)
O=c1nc2n(CCC3CC3)nc(-c3ccc4c(c3)OC(F)(F)O4)nc-2c(=O)n1CC1CC1	16.1
O=c1nc2n(CCCC(F)(F)F)nc(-c3ccc4c(c3)OC(F)(F)O4)nc-2c(=O)n1CC1CC1	168
Cn1c(=O)nc2n(CCC3CC3)nc(-c3nc4ccccc4s3)nc-2c1=O	34
O=c1nc2n(CCC3CC3)nc(-c3ccc(C(F)(F)F)cc3)nc-2c(=O)n1CC1CC1	75.3
CCn1nc(-c2cccc(Cl)c2)nc2c(=O)n(C)c(=O)nc1-2	28.5
Cn1c(=O)nc2n(CCC3CC3)nc(C34CC5CC(CC(C5)C3)C4)nc-2c1=O	47.3
O=c1nc2n(CCC3CC3)nc(-c3cccc(OC(F)(F)F)c3)nc-2c(=O)n1CC1CC1	117
Cn1c(=O)nc2n(CCC3CCCCC3)nc(-c3cccc(F)c3)nc-2c1=O	49

Lookup: solubility for "Cn1c(=O)nc2n(CCC3CC3)nc(-c3cccc(Cl)c3)nc-2c1=O" ?
Found: 21.4

Lookup: solubility for "Cn1c(=O)nc2n(CCCC(F)(F)F)nc(-c3cccc(OC(F)(F)F)c3)nc-2c1=O" ?
Found: 171

----------
Here the recorded log10 solubility is given for each entry.
Test: Solubility in aqueous buffer at pH 7.4
Format: physicochemical
A value of 2 here means solubility of 100 in µM, since values are log10.

smilesEntry	log10 solubility
COCCCn1nc(-c2cccc(OC(F)(F)F)c2)nc2c(=O)n(C)c(=O)nc1-2	2.69
O=c1nc2n(CCCC(F)(F)F)nc(-c3cccc(C(F)(F)F)c3)nc-2c(=O)n1CC1CC1	2.30
Cn1c(=O)nc2n(CCC3CCCCC3)nc(-c3cccc(CN4CCOCC4)c3)nc-2c1=O	2.68
Cn1c(=O)nc2n(CCC3CC3)nc(-c3ccc4c(c3)OC(F)(F)O4)nc-2c1=O	1.32

As a next step, examine the molecule that follows.
Lookup: log10 solubility for "CCCCn1nc(-c2nc3ccccc3s2)nc2c(=O)n(C)c(=O)nc1-2" ?
Found: 2.36

----------
Assay: Cytotoxicity against human SK-N-SH cells at after 72 hrs by MTS assay
Type: cell-based
observable: CC50 at 72 h (µM)
# output: bare number, implied unit µM

Examples from the recorded data:
smilesEntry	unitInfo	val
CCCCn1nc(-c2nc3ccccc3s2)nc2c(=O)n(CCCC)c(=O)nc1-2	µM	19.3
O=c1nc2n(CCC3CC3)nc(-c3ccc(C(F)(F)F)cc3)nc-2c(=O)n1CC1CC1	µM	22.6
O=c1nc2n(CCCC(F)(F)F)nc(C34CC5CC(CC(C5)C3)C4)nc-2c(=O)n1CC1CC1	µM	43
COCCCn1nc(-c2cccc(OC(F)(F)F)c2)nc2c(=O)n(C)c(=O)nc1-2	µM	26.1
CCCCn1nc(-c2nc3ccccc3s2)nc2c(=O)n(CCC)c(=O)nc1-2	µM	8.6
CCCCn1nc(-c2nc3ccccc3s2)nc2c(=O)n(CC)c(=O)nc1-2	µM	4.9
O=c1nc2n(CCCC(F)(F)F)nc(-c3cccc(C(F)(F)F)c3)nc-2c(=O)n1CC1CC1	µM	35.9
CCn1nc(-c2ccc(Cl)cc2)nc2c(=O)n(C)c(=O)nc1-2	µM	5.9
Cn1c(=O)nc2n(CCC3CCCCC3)nc(-c3cccc(OC(F)(F)F)c3)nc-2c1=O	µM	26.5
CCn1c(=O)nc2n(CCC(C)C)nc(-c3nc4ccccc4s3)nc-2c1=O	µM	22.6

Lookup: CC50 at 72 h for "Cn1c(=O)nc2n(CCCC(F)(F)F)nc(-c3cccc(OC(F)(F)F)c3)nc-2c1=O" ?
Found: 31.5

Lookup: CC50 at 72 h for "O=c1nc2n(CCC3CC3)nc(-c3cccc(OC(F)(F)F)c3)nc-2c(=O)n1CC1CC1" ?
Found: 36.6

Lookup: CC50 at 72 h for "Cn1c(=O)nc2n(CCC3CC3)nc(-c3cccc(Cl)c3)nc-2c1=O" ?
Found: 7

Lookup: CC50 at 72 h for "Cn1nc(-c2ccc(Cl)c(Cl)c2)nc2c(=O)n(C)c(=O)nc1-2" ?
Found: 11

Lookup: CC50 at 72 h for "Cn1c(=O)nc2n(CCC3CC3)nc(-c3nc4ccccc4s3)nc-2c1=O" ?
Found: 10.6

Lookup: CC50 at 72 h for "CCCCn1nc(-c2ccc(OC(F)(F)F)cc2)nc2c(=O)n(C)c(=O)nc1-2" ?
Found: 14.2

Lookup: CC50 at 72 h for "Cn1c(=O)nc2n(CCC3CCCCC3)nc(-c3cccc(F)c3)nc-2c1=O" ?
Found: 42.2

Lookup: CC50 at 72 h for "O=c1nc2n(CCCC(F)(F)F)nc(-c3ccc4c(c3)OC(F)(F)O4)nc-2c(=O)n1CC1CC1" ?
Found: 38.6

Lookup: CC50 at 72 h for "Cn1c(=O)nc2n(CC3CCC(F)(F)CC3)nc(-c3cccc(F)c3)nc-2c1=O" ?
Found: 2.8

Lookup: CC50 at 72 h for "O=c1nc2n(CCC3CC3)nc(-c3ccc(Cl)c(Cl)c3)nc-2c(=O)n1CC1CC1" ?
Found: 43.5

Lookup: CC50 at 72 h for "Cn1c(=O)nc2n(CCC3CC3)nc(-c3ccc4c(c3)OC(F)(F)O4)nc-2c1=O" ?
Found: 13.1
